Target: human M4 muscarinic acetylcholine receptor (Homo sapiens, UniProt P08173)
Sequence (P08173 1-479): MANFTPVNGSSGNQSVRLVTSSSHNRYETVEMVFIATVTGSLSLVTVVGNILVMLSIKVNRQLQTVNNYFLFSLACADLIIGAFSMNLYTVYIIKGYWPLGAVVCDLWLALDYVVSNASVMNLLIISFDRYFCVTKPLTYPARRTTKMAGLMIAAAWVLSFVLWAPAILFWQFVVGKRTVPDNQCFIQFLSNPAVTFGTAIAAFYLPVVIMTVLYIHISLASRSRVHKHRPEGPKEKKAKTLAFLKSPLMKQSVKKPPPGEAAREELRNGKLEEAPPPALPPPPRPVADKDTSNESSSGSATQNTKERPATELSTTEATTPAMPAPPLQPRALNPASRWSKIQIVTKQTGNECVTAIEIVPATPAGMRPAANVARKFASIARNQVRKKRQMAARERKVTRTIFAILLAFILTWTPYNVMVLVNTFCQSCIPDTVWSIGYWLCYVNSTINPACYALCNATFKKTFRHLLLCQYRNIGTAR
Experiment: human FLIPR-based M4 PAM assay (calcium mobilization in CHO-K1 cells with human M4 receptor and Gαqi5)
Settings: inflection point of dose response curve, acetylcholine at 20% of maximum response, FLIPR Tetra, read-out: M4 PAM IP
Property label: pEC50
Quick note: pEC50 values are minus log10 of concentrations in mol/L.

| Molecule | pEC50 |
| --- | --- |
| CN1Cc2ncc(-c3nc(C#N)ccc3-c3cnn(CC4(C)CCCC4)c3F)cc2C1=O [Example 54] | 8.10 |

Q: So what does the record say about pEC50 for CC1(Cn2cc(-c3cc(F)c(C#N)nc3-c3ccc4c(c3)C(=O)N(CC3CC3)C4)cn2)CCCC1 [Example 48] ?
Ans: 7.12

Q: Quick one: pEC50 for CC1(Cn2cc(-c3ccc(C#N)nc3-c3ccc4c(c3)C(=O)N(C3COC3)C4)cn2)CCCC1 [Example 82] ?
Ans: 6.51

Q: pEC50 for Cc1ccc(-c2cnn(CC3(C)CCCC3)c2)c(-c2ccc3c(c2)C(=O)NC3=O)n1 [Example 99] ?
Ans: 7.72

Q: // query pEC50 value for entry Cc1cc(-c2cnn(CC3(C)CCCC3)c2)c(-c2cnc3c(c2)C(=O)N(C)C3)nc1F [Example 1]
Ans: 7.41

Q: Please give the measured pEC50 for this molecule: CN1Cc2ccc(-c3nc(F)ccc3-c3cnn(CC4(C)CCCC4)c3)cc2C1=O [Example 36]
Ans: 8.22

Q: Query (molecule): CC1(Cn2ncc(-c3ccc(C#N)nc3-c3ccc4c(c3)C(=O)NC4)c2F)CCCC1 [Example 43A] ; field requested: pEC50
Ans: 7.59

Q: Give the measured pEC50 of Cc1ccc(-c2cnn(CC3CCCC3)c2F)c(-c2ccc3c(c2)C(=O)N(C)C3)n1 [Example 76] .
Ans: 8.05

Q: For O=C1c2cc(-c3nc(F)ccc3-c3cnn(CC4CCCC4)c3)ccc2CN1CC1CC1 [Example 21] , what is its reported pEC50?
Ans: 7.66

Q: Would you kindly share the measured pEC50 for Cc1ccc(-c2cnn(CC3CCCC3)c2)c(-c2ccc3c(c2)C(=O)N(CCc2ccccc2)C3)n1 [Example 4] ?
Ans: 7.43

Q: Consider the molecule shown here: C#CCN1Cc2ccc(-c3nc4c(cc3-c3cnn(CC5(C)CCCC5)c3)CCC4)cc2C1=O [Example 123] What is its recorded pEC50?
Ans: 7.32

Q: // lookup pEC50 for Cc1ccc(-c2cnn(CC3CCCC3)c2)c(-c2ccc3c(c2)C(=O)N(CC2CCCO2)C3)n1 (centres unmarked) [Example 5]
Ans: 7.70

Q: Value lookup for pEC50; key = CC1(Cn2cc(-c3ccc(C#N)nc3-c3cnc4c(c3)C(=O)NC4)cn2)CCCC1 [Example 101]
Ans: 7.74

Q: Sample C#CCN1Cc2ncc(-c3nc(CF)ccc3-c3cnn(CC4(C)CCCC4)c3)cc2C1=O [Example 117] — what was its pEC50?
Ans: 7.49

Q: Recorded pEC50 of O=C1c2cc(-c3nc(Cl)ccc3-c3cnn(CC4CCCC4)c3)ccc2CN1C1CC1 [Example 108] , please.
Ans: 7.77

###

// values below are reported EC50
target: human M4 muscarinic acetylcholine receptor (Homo sapiens, UniProt P08173); assay: human FLIPR-based M4 PAM assay (calcium mobilization in CHO-K1 cells with human M4 receptor and Gαqi5); settings: inflection point of dose response curve, acetylcholine at 20% of maximum response, FLIPR Tetra, read-out: M4 PAM IP
Could you give me the number in nM? Just the number is fine.

Recorded EC50, per entry:
| Compound | EC50 [nM] |
| --- | --- |
| CC#CCN1Cc2ncc(-c3nc(C#N)ccc3-c3cnn(CC4(C)CCCC4)c3)cc2C1=O [Example 122] | 41 |
| Cc1cc(-c2cnn(CC3(C)CCCC3)c2F)c(-c2ccc3c(c2)C(=O)N(C)C3)nc1Cl [Example 75] | 80 |
| CN1Cc2ccc(-c3nccc(C#N)c3-c3cnn(CC4(C)CCCC4)c3)cc2C1=O [Example 31] | 74 |
| Cc1cc(-c2cnn(CC3(C)CCCC3)c2)c(-c2ccc3c(c2)C(=O)NC3)nc1Cl [Example 40] | 49 |
| O=C1c2cc(-c3ncccc3-c3cnn(CC4CCCC4)c3)ccc2CN1CC1CC1 [Example 84] | 47 |

Q: Entry CN1Cc2ncc(-c3nc4c(cc3-c3cnn(CC5(C)CCCC5)c3)CCC4)cc2C1=O [Example 61] , system human M4 muscarinic acetylcholine receptor (Homo sapiens, UniProt P08173): what EC50 was measured?
Ans: 59

Q: Return EC50 measured with human M4 muscarinic acetylcholine receptor (Homo sapiens, UniProt P08173) given this compound: CC1(Cn2ncc(-c3ccc(C#N)nc3-c3ccc4c(c3)C(=O)N(CC3CC3)C4)c2F)CCCC1 [Example 45]
Ans: 41

Q: Any idea what EC50 came out for CC1(Cn2cc(-c3cc4c(nc3-c3cnc5c(c3)C(=O)N(CCC#N)C5)CCC4)cn2)CCCC1 [Example 69] on human M4 muscarinic acetylcholine receptor (Homo sapiens, UniProt P08173)?
Ans: 34

###

target: human M4 muscarinic acetylcholine receptor (Homo sapiens); test: human FLIPR-based M4 PAM assay (calcium mobilization in CHO-K1 cells with human M4 receptor and Gαqi5); conditions: inflection point of dose response curve, acetylcholine at 20% of maximum response, FLIPR Tetra, read-out: M4 PAM IP
In this section, each of the compounds is paired with its reported EC50.
Numbers only; they are read as nM.

| Compound | EC50, nM |
| --- | --- |
| CC1(Cn2cc(-c3ccc(C#N)nc3-c3cnc4c(c3)C(=O)N(CCF)C4)cn2)CCCC1 [Example 103] | 33 |
| COC(=O)CN1Cc2ccc(-c3nc(C#N)ccc3-c3cnn(CC4(C)CCCC4)c3)cc2C1=O [Example 34A] | 44 |
| Cc1cc(-c2cnn(CC3(C)CCCC3)c2)c(-c2ccc3c(c2)C(=O)N(C)C3)nc1C [Example 109] | 48 |

Q: Recorded EC50 of Cc1ccc(-c2cnn(CC3CCCC3)c2)c(-c2ccc3c(c2)C(=O)N(CC2CC2)C3)n1 [Example 3] , please.
Ans: 38

###

The entries below come with measured EC50 values attached.
Molecular target: human M4 muscarinic acetylcholine receptor (Homo sapiens, UniProt P08173)
Sequence (P08173 1-479): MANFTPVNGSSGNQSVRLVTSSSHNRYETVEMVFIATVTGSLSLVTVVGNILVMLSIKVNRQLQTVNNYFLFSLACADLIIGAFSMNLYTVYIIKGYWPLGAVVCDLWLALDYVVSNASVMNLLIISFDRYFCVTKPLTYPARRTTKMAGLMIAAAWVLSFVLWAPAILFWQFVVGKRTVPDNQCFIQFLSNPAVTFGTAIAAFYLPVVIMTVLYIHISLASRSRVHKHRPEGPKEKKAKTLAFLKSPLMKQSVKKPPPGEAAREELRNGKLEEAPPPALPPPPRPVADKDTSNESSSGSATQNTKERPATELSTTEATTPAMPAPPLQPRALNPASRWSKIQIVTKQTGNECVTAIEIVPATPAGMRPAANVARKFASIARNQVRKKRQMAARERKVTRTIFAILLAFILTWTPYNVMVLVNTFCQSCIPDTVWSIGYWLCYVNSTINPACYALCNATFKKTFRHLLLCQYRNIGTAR
Assay: human FLIPR-based M4 PAM assay (calcium mobilization in CHO-K1 cells with human M4 receptor and Gαqi5)
Settings: inflection point of dose response curve, acetylcholine at 20% of maximum response, FLIPR Tetra, read-out: M4 PAM IP
Description: In a typical experiment the M4 muscarinic acetylcholine receptor modulating activity of the compounds of the present invention was determined in accordance with the following experimental method. […] Following dye loading the cell plates are placed in a FLIPR Tetra instrument and while monitoring dye fluorescence (excitation […]), 10 uL of test substance at increasing concentrations is added, and fluorescence values are recorded for 4 min. […]

| Molecule | Property label | Observed result |
| --- | --- | --- |
| CN1C(=O)c2cc(-c3nc(C#N)ccc3-c3cnn(CC4(C)CCCC4)c3)ccc2C1(C)C [Example 72] | EC50 | 41 nM |

Q: Any idea what EC50 was measured for CN1Cc2ccc(-c3ncc(F)cc3-c3cnn(CC4(C)CCCC4)c3)cc2C1=O [Example 50] ?
Ans: 38 nM

Q: Give the measured EC50 of CN1Cc2ccc(-c3nc(CF)ccc3-c3cnn(CC4(C)CCCC4)c3)cc2C1=O [Example 52] .
Ans: 40 nM

Q: Need EC50, item CN1Cc2ccc(-c3nc(C#N)ccc3-c3cn(CC4(C)CCCC4)nc3C#N)cc2C1=O [Example 110]
Ans: 86 nM

Q: Recorded EC50 of CN1Cc2ncc(-c3nc(C#N)ccc3-c3cnn(CC4(C)CCCC4)c3)cc2C1=O [Example 95] , please.
Ans: 21 nM

Q: Consider the molecule CN1Cc2ccc(-c3nc(Cl)ccc3-c3cnn(CC4CCCC4)c3)cc2C1=O [Example 107] and give its measured EC50.
Ans: 15 nM
